# tgt: Tyrosine-protein phosphatase non-receptor type 1 (Homo sapiens, UniProt P18031)
# Sequence (P18031 whole entry): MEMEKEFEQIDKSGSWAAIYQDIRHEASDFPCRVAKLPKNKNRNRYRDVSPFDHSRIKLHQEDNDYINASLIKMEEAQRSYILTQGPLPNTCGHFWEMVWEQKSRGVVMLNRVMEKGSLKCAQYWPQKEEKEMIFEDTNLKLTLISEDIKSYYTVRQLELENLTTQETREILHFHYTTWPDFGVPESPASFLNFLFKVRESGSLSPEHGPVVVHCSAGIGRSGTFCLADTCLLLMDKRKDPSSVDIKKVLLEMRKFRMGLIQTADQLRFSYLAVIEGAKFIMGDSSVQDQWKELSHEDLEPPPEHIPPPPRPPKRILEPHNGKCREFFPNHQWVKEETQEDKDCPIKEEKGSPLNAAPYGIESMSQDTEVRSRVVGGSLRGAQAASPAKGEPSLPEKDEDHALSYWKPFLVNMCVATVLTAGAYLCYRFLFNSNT
# test: Inhibition of human recombinant PTP1B expressed in CHO cells assessed as p-nitorphenol production after 2 mins by microplate reader
Overview of reported IC50 across a group of compounds:

> print(dat)
                                   compound  metric  observed.measurement
1  O=C(O)c1cccc(O)c1 [3-HYDROXYBENZOIC ACID]    IC50              > 100 µM
2  O=C(O)c1cc(O)cc(O)c1 [3,5-DIHYDROXYBENZOIC ACID]    IC50              > 100 µM

Read the next record carefully.
// IC50 lookup, key: O=C(O)c1cc(O)ccc1O
> 100 µM
